Value source: PubChem BioAssay (Tox21)

Assay: qHTS assay to identify small molecule antagonists of the androgen receptor (AR) signaling pathway using the MDA cell line - cell viability counter screen (AID 743041; further: nearly all actives have a fitted effect of over 45% in size)
Conditions: MDA-kb2 viability, CellTiter-Fluor, 16 h, cells co-treated with R1881 androgen agonist; series mostly up to 70.3 µM
Inconclusive results are not listed. Calls of active or inactive are those of the source. The call rests on the fitted dose curve; in most records, active means well fitted cell-killing curve with a large enough effect in the repeat runs; inconclusive means weak or mixed curves, or effect the other way; inactive means flat fitted curve, though single readings scatter.
Labels: 1.0 (active), 0.0 (inactive)

compound=O=C(Cc1ccccc1)OCCc1ccccc1 category_label=0.0
compound=O=C(O)COc1cc(Cl)c(Cl)cc1Cl category_label=0.0
compound=CC(=O)NNc1ccccc1 category_label=0.0
compound="COc1ccc(C(O)(c2cncnc2)C2CC2)cc1 (configuration not stated)" category_label=0.0
compound=CN1C[C@H](C(=O)N[C@]2(C)O[C@@]3(O)[C@@H]4CCCN4C(=O)[C@H](Cc4ccccc4)N3C2=O)C=C2c3cccc4[nH]cc(c34)C[C@H]21 category_label=0.0
compound=CCNC(=O)NC(=O)/C(C#N)=N/OC category_label=0.0
compound=CCCCNC(=O)OCC#CI category_label=1.0
compound=CC[N+]1(CCOC(=O)C(O)(c2ccccc2)c2ccccc2)CCCCC1 category_label=0.0
compound="CCCCC(CC)COC(=O)c1c(Br)c(Br)c(Br)c(Br)c1C(=O)OCC(CC)CCCC (configuration not stated)" category_label=0.0
compound=c1ccc2c(c1)-c1cccc3cccc-2c13 category_label=0.0
compound=OC[P+](CO)(CO)CO category_label=0.0
compound=O=C1c2ccccc2C(=O)N1SC(Cl)(Cl)Cl category_label=1.0
compound="C[N+]1(CCF)[C@@H]2CC[C@H]1CC(OC(=O)C(O)(c1ccccc1)c1ccccc1)C2 (some centres not stated)" category_label=0.0
compound=O=C(Cl)OCCOCCOC(=O)Cl category_label=0.0
compound=C#C[C@]1(O)CC[C@H]2[C@@H]3CCC4=CC(=O)CCC4=C3C=C[C@@]21CC category_label=0.0
compound=Cc1nc(N(C)C)nc(OC(=O)N(C)C)c1C category_label=0.0
compound=O=C=NC1CCCCC1 category_label=0.0
compound=CCN(C(C)=O)c1cccc(-c2ccnc3c(C#N)cnn23)c1 category_label=0.0
compound=Clc1ccc2ccccc2c1 category_label=0.0
compound=CCCN(CCC)c1c([N+](=O)[O-])cc(C(C)C)cc1[N+](=O)[O-] category_label=0.0
compound=C=CC(=O)NC(C)(C)CC(C)=O category_label=0.0
compound=COC1=CC(=O)O[C@@H](/C=C/c2ccc3c(c2)OCO3)C1 category_label=0.0
compound="CC(Cl)C(=O)O (configuration not stated)" category_label=0.0
compound="O=C(O)C(O)C(O)C(=O)O (configuration not stated)" category_label=0.0
compound=CCCCCCCCCCCCN(C)C category_label=0.0
compound=NNCCO category_label=0.0
compound=O=C(Cc1ccccc1)c1ccccc1 category_label=0.0
compound="CCCC1CCCCN1 (configuration not stated)" category_label=0.0
compound=O=[N+]([O-])O[C@H]1CO[C@H]2[C@@H]1OC[C@H]2O[N+](=O)[O-] category_label=0.0
compound=c1ccc2sc(SNC3CCCCC3)nc2c1 category_label=0.0
compound=C=CCN1C[C@H](C)N([C@H](c2ccc(C(=O)N(CC)CC)cc2)c2cccc(OC)c2)C[C@H]1C category_label=0.0
compound="CC(=O)OC(c1ccccc1)C(Cl)(Cl)Cl (configuration not stated)" category_label=0.0
compound="CCCC[N+]1(C)[C@@H]2CC(OC(=O)[C@H](CO)c3ccccc3)C[C@H]1[C@@H]1O[C@@H]12 (some centres not stated)" category_label=0.0
compound="CC(C)(C)NCC(O)c1cc(Cl)c(N)c(C(F)(F)F)c1 (configuration not stated)" category_label=0.0
compound=C=CCOC(=O)C(C)(C)OC(=O)c1cc(-n2c(=O)cc(C(F)(F)F)n(C)c2=O)ccc1Cl category_label=0.0
compound="CCCSP(=S)(OCC)Oc1ccc(SC)cc1 (configuration not stated)" category_label=0.0
compound=CCCCCCCCCCCCCCCl category_label=0.0
compound=C1CCNCC1 category_label=0.0
compound="CCOC(=O)C1OC1(C)c1ccccc1 (configuration not stated)" category_label=0.0
compound=CC(C)CCON=O category_label=0.0
compound="COCc1cnc(C2=NC(C)(C(C)C)C(=O)N2)c(C(=O)O)c1 (configuration not stated)" category_label=0.0
compound=Cc1ncc(C[n+]2csc(CCO)c2C)c(N)n1 category_label=0.0
